Values from paper PMC10490226

- System: MCF-7 cells
- assay_explanation: MTT cytotoxicity test on MCF-7 cells
- Format: cell-based
- experimental_context: Homo sapiens, MCF7, 24 h, MTT, 24 h incubation, doses 50 to 1000 µM, mean of three; read-out: IC50 concentration, 50% inhibition of MCF-7 cell viability
reported_endpoint: IC50 (µM)
Entry rule: numbers only, all in µM.

[
  {
    "molecule": "CCCCCCOc1ccc(NC(=S)Nc2ccc(F)cc2)cc1 [Compound 4]",
    "IC50 (µM)": 338
  },
  {
    "molecule": "CCCCCCOc1ccc(NC(=O)Nc2ccccc2)cc1 [Compound 1, 1-(4-(hexyloxy)phenyl)-3-phenylurea]",
    "IC50 (µM)": 727
  },
  {
    "molecule": "CCCCCCCCCCCCCCCCOc1ccc(NC(=S)Nc2ccc(F)cc2)cc1 [Compound 6]",
    "IC50 (µM)": 712
  },
  {
    "molecule": "CCCCCCCCCCCCCCCCOc1ccc(NC(=O)Nc2ccccc2)cc1 [Compound 3, 1-(4-(hexadecyloxy)phenyl)-3-phenylurea]",
    "IC50 (µM)": 620
  },
  {
    "molecule": "CCCCCCCCOc1ccc(NC(=S)Nc2ccc(F)cc2)cc1 [Compound 5]",
    "IC50 (µM)": 568
  }
]

Attention now turns to another entry.
Query :: What does the data say about its IC50? Entry: CCCCCCCCOc1ccc(NC(=O)Nc2ccccc2)cc1 [Compound 2, 1-(4-(octyloxy)phenyl)-3-phenylurea]
Result :: 527
